- target: rat mGlu5 (Rattus norvegicus, UniProt P31424)
- Sequence (P31424 21-1203): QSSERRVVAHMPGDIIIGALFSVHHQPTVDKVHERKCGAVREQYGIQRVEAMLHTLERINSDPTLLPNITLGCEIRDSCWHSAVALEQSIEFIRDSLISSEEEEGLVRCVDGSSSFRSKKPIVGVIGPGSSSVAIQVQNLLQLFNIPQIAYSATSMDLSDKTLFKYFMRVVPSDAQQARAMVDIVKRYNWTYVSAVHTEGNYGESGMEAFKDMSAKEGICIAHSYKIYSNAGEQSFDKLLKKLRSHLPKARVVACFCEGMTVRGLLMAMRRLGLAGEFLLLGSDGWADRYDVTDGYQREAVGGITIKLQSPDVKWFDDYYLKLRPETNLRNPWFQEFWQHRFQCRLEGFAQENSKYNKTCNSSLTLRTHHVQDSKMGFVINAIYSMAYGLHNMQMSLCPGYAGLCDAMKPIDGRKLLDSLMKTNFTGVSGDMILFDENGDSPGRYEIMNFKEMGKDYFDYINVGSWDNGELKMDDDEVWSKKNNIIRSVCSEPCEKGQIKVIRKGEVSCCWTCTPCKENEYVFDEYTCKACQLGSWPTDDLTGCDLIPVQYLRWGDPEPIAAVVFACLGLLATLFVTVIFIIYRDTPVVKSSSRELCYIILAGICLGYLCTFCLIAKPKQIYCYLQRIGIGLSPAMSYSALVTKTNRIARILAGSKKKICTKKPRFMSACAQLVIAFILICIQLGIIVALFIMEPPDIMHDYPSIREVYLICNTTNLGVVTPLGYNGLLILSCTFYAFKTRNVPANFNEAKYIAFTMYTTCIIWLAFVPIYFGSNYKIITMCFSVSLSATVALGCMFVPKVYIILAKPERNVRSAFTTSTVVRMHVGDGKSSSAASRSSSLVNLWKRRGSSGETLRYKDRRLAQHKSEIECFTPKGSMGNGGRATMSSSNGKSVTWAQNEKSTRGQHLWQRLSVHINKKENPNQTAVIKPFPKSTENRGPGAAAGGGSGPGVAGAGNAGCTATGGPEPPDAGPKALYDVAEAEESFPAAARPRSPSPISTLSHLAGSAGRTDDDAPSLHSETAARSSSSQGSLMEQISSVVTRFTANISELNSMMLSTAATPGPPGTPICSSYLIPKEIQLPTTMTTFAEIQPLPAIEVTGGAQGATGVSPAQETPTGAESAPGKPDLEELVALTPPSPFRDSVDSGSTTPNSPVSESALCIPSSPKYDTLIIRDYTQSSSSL
- protocol.description: Calcium mobilization mGlu5 assay
- Format: cell-based
- assay.conditions: calcium mobilization; average of n ≥ 3 (n = 2 where marked)
Below, each of the compounds is paired with its reported mGlu5 pEC50 (± SEM) value.
Answer with a bare number; do not write a unit.

See these solved cases before continuing.
[[record]]
item_smiles = "Cc1ccc(OCc2cc3n(n2)[C@H](C)CN(c2ccc(F)cc2)C3=O)cc1"
assay_result = 5.97

[[record]]
item_smiles = "CCc1ccc(OCc2cc3n(n2)[C@H](C)CN(c2ccc(F)cc2)C3=O)cc1"
assay_result = 5.49

[[record]]
item_smiles = "COc1ccc(OCc2cc3n(n2)[C@H](C)CN(c2ccc(F)cc2)C3=O)cc1"
assay_result = 5.87

[[record]]
item_smiles = "C[C@@H]1CN(c2ccc(F)cc2)C(=O)c2cc(COc3ccccc3F)nn21"
assay_result = 6.71

[[record]]
item_smiles = "Cc1ccccc1OCc1cc2n(n1)[C@H](C)CN(c1ccc(F)cc1)C2=O"
assay_result = 5.83

[[record]]
item_smiles = "C[C@@H]1CN(c2ccc(F)cc2)C(=O)c2cc(COc3ccc(F)cc3F)nn21"
assay_result = 6.51


Let us move to another entry and its mGlu5 pEC50 (± SEM).
Item: COc1cccc(OCc2cc3n(n2)[C@H](C)CN(c2ccc(F)cc2)C3=O)c1 | mGlu5 pEC50 (± SEM): 5.74
